Quick reference for MIC among some molecules
Tested on: P. acnes
Method: agar dilution method: growth index and MIC on P. acnes (single compounds and combinations)
Format: cell-based
Measurement Conditions: Cutibacterium acnes; with 1.0 mg/mL dGLA (Cayman); read-out: MIC (mg/mL) with 1.0 mg/mL dGLA spike

// below: answered molecules
INSERT INTO assay_data (molecule, result) VALUES
  ('COc1ccc(-c2ccc3cc(C(=O)O)ccc3c2)cc1C12CC3CC(CC(C3)C1)C2 [Adapalene]', '> 0.6 mg/mL'),
  ('O=C(OOC(=O)c1ccccc1)c1ccccc1 [Benzoyl Peroxide]', '0.2 to 0.4 mg/mL'),
  ('Cc1ncc([N+](=O)[O-])n1CCO [Metronidazole]', '> 1 mg/mL');

Turning to the following molecule.
Ask: Notebook: pull reported MIC for P. acnes, entry NC(=O)c1cccnc1 [Nicotinamide]
Reply: 10 to 15 mg/mL
